Value source: the RNAGym collection of RNA variant scans (doi:10.1038/s41586-018-0170-7)

Provide the recorded yeast fitness (ln) for the entries that follow.
B1: tRNA (parent)
chain: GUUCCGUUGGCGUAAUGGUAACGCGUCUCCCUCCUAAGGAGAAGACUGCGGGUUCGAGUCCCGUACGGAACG

variants of: B1; experiment: yeast fitness, log relative to wild type (ln ratio); higher = fitter; tRNA-Arg(CCU), competitive growth, 37 C, 1 M NaCl

[ask] I would be grateful if you could share the reported yeast fitness (ln) for U2C G6A C27U C46U .
[reply] -0.0382

[ask] Field entry: G1A U2G G6U A43C C66U A69G A70G C71U
[reply] -0.368

[ask] Field entry: G1A G6A A43C C66U A69G C71U
[reply] -0.811

[ask] Field entry: G6U A43C C46U C66A A69G A70U
[reply] -0.113

[ask] Field entry: G1A G6A A69G A70G C71U
[reply] -0.178

[ask] Field entry: G6U A43C C66A A69G A70G C71U
[reply] -0.299

[ask] Field entry: G1A U2C C27U A43C C46U C66A A69G A70G C71U
[reply] -0.158

[ask] Field entry: G1A G6U A43C C66U A69G A70G C71U
[reply] -0.371

[ask] Field entry: G1A U2G G6A A69G A70G C71U
[reply] -0.298

[ask] Field entry: U2G G6U A43C C66U A69G A70G
[reply] -0.323

[ask] Field entry: C66A A69G A70U C71U
[reply] -0.32

[ask] Field entry: G1A U2C G6U A43C A70U C71U
[reply] -0.195

[ask] Field entry: G6A C27U
[reply] -0.0758

[ask] Field entry: U2C C66A A69G A70G
[reply] -0.0883

[ask] Field entry: U2G C66A A70U
[reply] -0.157

[ask] Field entry: U2C G6U A69G A70G C71U
[reply] -0.325

[ask] Field entry: G6U A43C C46U C66U A69G A70G
[reply] -0.313

[ask] Field entry: C46U A69G A70U
[reply] -0.0401

[ask] Field entry: G6A A43C C66A A70G
[reply] -0.154

[ask] Field entry: U2C G6U C27U A43C C46U C66U A69G A70G C71U
[reply] -0.275

[ask] Field entry: G1A G6U C66U A69G A70U
[reply] -0.284

[ask] Field entry: U2G C46U C66U A69G A70U C71U
[reply] -0.349
